- ASSAY REMARKS: Selectivity index, ratio of IC50 for human HepG2 cells to IC50 for Plasmodium falciparum W2
- Format: toxicity, cell-based
- CONDITION SUMMARY: read-out: Ratio IC50
MEASURED METRIC: selectivity ratio

Some molecules with recorded selectivity ratio:
STRUCTURE NOTATION	selectivity ratio
CN1CCN(C(=O)n2cc(-c3ccnc(N)n3)c3ccccc32)CC1	> 5.1
Nc1nccc(-c2c[nH]c3ccccc23)n1	> 26.8
Nc1nccc(-c2cn(Cc3ccc(Cl)s3)c3ccc(Br)cc23)n1	> 5.9
Cc1noc(C)c1Cn1cc(-c2ccnc(N)n2)c2cc(Br)ccc21	> 4.3
Nc1nccc(-c2cn(Cc3c4ccccc4cc4ccccc34)c3ccc(Br)cc23)n1	> 4.5
Nc1nccc(-c2c[nH]c3ccc(Br)cc23)n1	> 7.4

input: Fill blank: measured selectivity ratio of the molecule `Nc1nccc(-c2cn(C(=O)c3ccccc3)c3ccccc23)n1` is ____.
output: > 17.4

input: Can you share its selectivity ratio? I mean this molecule: `Nc1nccc(-c2cn(Cc3c4ccccc4cc4ccccc34)c3ccccc23)n1`
output: > 5.7

input: Can you look up the measured selectivity ratio of `Nc1nccc(-c2cn(C(=O)c3ccccc3)c3ccc(Br)cc23)n1` for me?
output: > 16

input: Reported selectivity ratio, molecule `Nc1nccc(-c2cn(C(=O)N3CCOCC3)c3ccccc23)n1` : ____
output: > 25.1

====

- ASSAY REMARKS: Selectivity index, ratio of IC50 for human HepG2 cells to IC50 for Plasmodium falciparum D6
- Type: toxicity, cell-based
- CONDITION SUMMARY: read-out: Ratio IC50
# selectivity ratio values compiled below

STRUCTURE NOTATION	selectivity ratio
Nc1nccc(-c2c[nH]c3ccccc23)n1	> 12.3

input: Query: selectivity ratio; subject: `Nc1nccc(-c2cn(Cc3ccc(Cl)s3)c3ccc(Br)cc23)n1`
output: > 4.4

input: Which selectivity ratio value belongs to `Cc1noc(C)c1Cn1cc(-c2ccnc(N)n2)c2cc(Br)ccc21` ?
output: > 6.5

input: Form field: reported selectivity ratio of `Nc1nccc(-c2c[nH]c3ccc(Br)cc23)n1`
output: > 6

input: Report selectivity ratio for `Nc1nccc(-c2cn(C(=O)c3ccccc3)c3ccc(Br)cc23)n1` please.
output: > 8.5

====

- ASSAY REMARKS: Selectivity index, ratio of IC50 for pig LLC-PK1 cells to IC50 for Plasmodium falciparum D6
- Format: toxicity, cell-based
- CONDITION SUMMARY: read-out: Ratio IC50
Form field: selectivity ratio (one value per entry).

STRUCTURE NOTATION	selectivity ratio
Nc1nccc(-c2c[nH]c3ccc(Br)cc23)n1	> 6
Nc1nccc(-c2cn(Cc3ccc(Cl)s3)c3ccc(Br)cc23)n1	> 4.4
CN1CCN(C(=O)n2cc(-c3ccnc(N)n3)c3ccccc32)CC1	> 7.7
Cc1noc(C)c1Cn1cc(-c2ccnc(N)n2)c2cc(Br)ccc21	> 6.5
Nc1nccc(-c2cn(C(=O)N3CCOCC3)c3ccccc23)n1	> 19.3

// moving on: another record for selectivity ratio
input: Recorded selectivity ratio of `Nc1nccc(-c2cn(Cc3c4ccccc4cc4ccccc34)c3ccc(Br)cc23)n1` , please.
output: > 4.7

====

Measured selectivity ratio by item
- ASSAY REMARKS: Selectivity index, ratio of IC50 for pig LLC-PK1 cells to IC50 for Plasmodium falciparum W2
- Assay type: toxicity, cell-based
- CONDITION SUMMARY: read-out: Ratio IC50

input: Which selectivity ratio reading was recorded for the compound `CN1CCN(C(=O)n2cc(-c3ccnc(N)n3)c3ccccc32)CC1` ?
output: > 5.1

input: Value lookup for selectivity ratio; key = `Nc1nccc(-c2cn(Cc3c4ccccc4cc4ccccc34)c3ccccc23)n1`
output: > 5.7

input: I have this compound here, `Nc1nccc(-c2cn(C(=O)c3ccccc3)c3ccccc23)n1` , and I need its recorded selectivity ratio.
output: > 17.4

input: I am curious: what selectivity ratio value has been reported for `Nc1nccc(-c2cn(Cc3c4ccccc4cc4ccccc34)c3ccc(Br)cc23)n1` ?
output: > 4.5

input: Quick check: selectivity ratio of `Nc1nccc(-c2c[nH]c3ccc(Br)cc23)n1` ?
output: > 7.4

input: # query: selectivity ratio of entry `Nc1nccc(-c2cn(C(=O)N3CCOCC3)c3ccccc23)n1`
output: > 25.1

input: GET /values?readout=selectivity ratio&item= `Nc1nccc(-c2cn(C(=O)c3ccccc3)c3ccc(Br)cc23)n1`
output: > 16

input: Bench note: what selectivity ratio did `Nc1nccc(-c2c[nH]c3ccccc23)n1` show?
output: > 24.1

input: // lookup selectivity ratio for `Cc1noc(C)c1Cn1cc(-c2ccnc(N)n2)c2cc(Br)ccc21`
output: > 4.3

input: Which selectivity ratio value is on record for `Nc1nccc(-c2cn(Cc3ccc(Cl)s3)c3ccc(Br)cc23)n1` ?
output: > 5.9

====

- ASSAY REMARKS: Selectivity index, ratio of IC50 for african green monkey Vero cells to IC50 for Plasmodium falciparum D6
- Format: toxicity, cell-based
- CONDITION SUMMARY: read-out: Ratio IC50
In this section, each of the compounds is paired with its reported selectivity ratio.

COMPOUND	RESULT
Nc1nccc(-c2cn(Cc3c4ccccc4cc4ccccc34)c3ccccc23)n1	> 8.9

input: Reported selectivity ratio, compound `Nc1nccc(-c2c[nH]c3ccccc23)n1` : ____
output: > 12.3

input: Requested field: selectivity ratio. Item: `Nc1nccc(-c2cn(Cc3c4ccccc4cc4ccccc34)c3ccc(Br)cc23)n1`
output: > 4.7

input: Which selectivity ratio reading was recorded for the compound `Nc1nccc(-c2cn(C(=O)N3CCOCC3)c3ccccc23)n1` ?
output: > 19.3

input: May I ask what selectivity ratio has been recorded for `Nc1nccc(-c2cn(C(=O)c3ccccc3)c3ccccc23)n1` ?
output: > 7

====

- ASSAY REMARKS: Selectivity index, ratio of IC50 for human HepG2 cells to IC50 for Plasmodium falciparum D6
- Type: toxicity, cell-based
- CONDITION SUMMARY: read-out: Ratio IC50
Reported values of selectivity ratio for individual entries

These solved cases illustrate the format of a correct answer.
STRUCTURE NOTATION	RESULT
Nc1nccc(-c2cn(C(=O)c3ccccc3)c3ccccc23)n1	> 7
Cc1noc(C)c1Cn1cc(-c2ccnc(N)n2)c2ccccc21	> 6.3
Nc1nccc(-c2cn(Cc3c4ccccc4cc4ccccc34)c3ccccc23)n1	> 8.9
CN1CCN(C(=O)n2cc(-c3ccnc(N)n3)c3ccccc32)CC1	> 7.7
Nc1nccc(-c2cn(Cc3c4ccccc4cc4ccccc34)c3ccc(Br)cc23)n1	> 4.7

# evaluate next
input: Entry `Nc1nccc(-c2cn(C(=O)N3CCOCC3)c3ccccc23)n1` : reported selectivity ratio = ?
output: > 19.3

====

- Tested on: Cryptococcus neoformans
- ASSAY REMARKS: Antimicrobial activity against Cryptococcus neoformans by NCCLS method
- Format: functional, organism-based
Active and inactive are the calls of the source. No cut-off for these calls is given here.
MEASURED METRIC: MIC

The cases that follow already have their MIC on record.
COMPOUND	MIC
Nc1nccc(-c2cn(Cc3ccc(Cl)s3)c3ccccc23)n1	14.7 µM
COCCn1cc(-c2ccnc(N)n2)c2cc(Br)ccc21	57.6 µM
CCOc1ccccc1C(=O)n1cc(-c2ccnc(N)n2)c2ccccc21	inactive
Nc1nccc(-c2cn(Cc3ccc(Cl)s3)c3ccc(Br)cc23)n1	47.7 µM
C[C@@H]1[C@H](O)[C@@H](C)/C=C/C=C/C=C/C=C/C=C/C=C/C=C/[C@H](O[C@@H]2O[C@H](C)[C@@H](O)[C@H](N)[C@@H]2O)C[C@@H]2O[C@](O)(C[C@@H](O)C[C@@H](O)[C@H](O)CC[C@@H](O)C[C@@H](O)CC(=O)O[C@H]1C)C[C@H](O)[C@H]2C(=O)O	1.35 µM

input: What MIC value was documented for this compound, `Nc1nccc(-c2c[nH]c3ccc(Br)cc23)n1` ?
output: inactive

input: I am curious: what MIC value has been reported for `Nc1nccc(-c2cn(C(=O)c3ccccc3)c3ccc(Br)cc23)n1` ?
output: inactive

input: Need MIC, item O=C1NC(c2c[nH]c3ccc(Br)cc23)Nc2ccccc21 (centres undefined)
output: inactive

input: Recorded MIC of `Nc1nccc(-c2cn(CN3C(=O)c4ccccc4C3=O)c3ccc(Br)cc23)n1` , please.
output: inactive

====

- System: Leishmania donovani
- ASSAY REMARKS: Antileishmanial activity against Leishmania donovani promastigotes after 48 hrs by Alamar Blue assay
- Type: functional, organism-based
- CONDITION SUMMARY: Leishmania donovani, 48 h
Lab note - cut at 40 µM for IC90: true if strictly below, false if not.

STRUCTURE NOTATION	ASSIGNED CLASS
Nc1nccc(-c2cn(Cc3ccc(Cl)s3)c3ccc(Br)cc23)n1	false
O=c1[nH]c(-c2c[nH]c3ccc(I)cc23)nc2ccccc12	true
C[C@@H]1[C@H](O)[C@@H](C)/C=C/C=C/C=C/C=C/C=C/C=C/C=C/[C@H](O[C@@H]2O[C@H](C)[C@@H](O)[C@H](N)[C@@H]2O)C[C@@H]2O[C@](O)(C[C@@H](O)C[C@@H](O)[C@H](O)CC[C@@H](O)C[C@@H](O)CC(=O)O[C@H]1C)C[C@H](O)[C@H]2C(=O)O	true
COCCn1cc(-c2ccnc(N)n2)c2cc(Br)ccc21	false
CN1CCN(C(=O)n2cc(-c3ccnc(N)n3)c3cc(Br)ccc32)CC1	false

Now examine the next entry.
input: Consider the compound `N=C(N)c1ccc(OCCCCCOc2ccc(C(=N)N)cc2)cc1` . Is its IC90 strictly less than 40 µM?
output: true
